Taken from paper PMC4476580.

Recorded pIC50 by entry
# TARGET_SYSTEM: WNV MTase (West Nile virus)
# Construct: containing the N-terminal 300, 266, 265, and 272 amino acids of NS5 protein, respectively; made in house
# TEST: biochemical
# TEST_PARAMETERS: read-out: IC50 2’-O with CHAPS
pIC50: −log10 of the molar value.

[
  {
    "MOLECULE": "Ic1ccc2c(c1)N(c1ccccc1)c1cc(Nc3ccc4c(c3)N(c3ccccc3)c3cc(I)ccc3N4)ccc1N2 [NSC 402959]",
    "pIC50": 5.21
  },
  {
    "MOLECULE": "Cc1nn(-c2ccc(S(=O)(=O)[O-])cc2)c([O-])c1N=Nc1ccc(-c2ccc(N=Nc3ccc4c(S(=O)(=O)[O-])cc(S(=O)(=O)[O-])c(N)c4c3[O-])c([O-])c2)cc1[O-].[Cu+2].[Cu+2].[H+].[H+].[H+] [NSC 306711]",
    "pIC50": 5.37
  },
  {
    "MOLECULE": "Cc1ccc(NC(=O)c2cc3ccccc3cc2O)c(C)c1.Cc1ccc(NC(=O)c2cc3ccccc3cc2O)c(C)c1.[Ni] [NSC 306698]",
    "pIC50": 4.31
  },
  {
    "MOLECULE": "O=C1c2cc([N+](=O)[O-])ccc2-c2ccc3c4ccc5c6c(ccc(c7ccc1c2c73)c64)C(=O)c1cc([N+](=O)[O-])ccc1-5 [NSC 51535]",
    "pIC50": 5.25
  }
]

----------
Recorded IC50 by entry
# TARGET_SYSTEM: WNV MTase (West Nile virus, UniProt Q9Q6P4)
# Construct: containing the N-terminal 300, 266, 265, and 272 amino acids of NS5 protein, respectively; made in house
# Sequence (Q9Q6P4 2529-2794 limits assumed): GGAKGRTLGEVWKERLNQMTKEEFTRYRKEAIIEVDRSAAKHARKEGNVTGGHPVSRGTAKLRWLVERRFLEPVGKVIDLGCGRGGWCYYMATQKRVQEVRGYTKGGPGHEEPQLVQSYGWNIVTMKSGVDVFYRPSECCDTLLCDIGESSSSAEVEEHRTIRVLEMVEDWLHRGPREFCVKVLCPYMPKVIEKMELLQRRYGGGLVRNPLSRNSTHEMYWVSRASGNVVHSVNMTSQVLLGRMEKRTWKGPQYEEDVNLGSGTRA
# TEST: biochemical
# Assay type: biochemical
# TEST_PARAMETERS: read-out: IC50 N7 No CHAPS
OUTCOME_MEASURE: IC50 (µM)

[
  {
    "MOLECULE": "Cc1nn(-c2ccc(S(=O)(=O)[O-])cc2)c([O-])c1N=Nc1ccc(-c2ccc(N=Nc3ccc4c(S(=O)(=O)[O-])cc(S(=O)(=O)[O-])c(N)c4c3[O-])c([O-])c2)cc1[O-].[Cu+2].[Cu+2].[H+].[H+].[H+] [NSC 306711]",
    "OUTCOME_MEASURE": "IC50",
    "UNITS_OF_MEASURE": "µM",
    "NUMERIC_RESULT": 0.87
  },
  {
    "MOLECULE": "Ic1ccc2c(c1)N(c1ccccc1)c1cc(Nc3ccc4c(c3)N(c3ccccc3)c3cc(I)ccc3N4)ccc1N2 [NSC 402959]",
    "OUTCOME_MEASURE": "IC50",
    "UNITS_OF_MEASURE": "µM",
    "NUMERIC_RESULT": 9.8
  },
  {
    "MOLECULE": "O=C1c2cc([N+](=O)[O-])ccc2-c2ccc3c4ccc5c6c(ccc(c7ccc1c2c73)c64)C(=O)c1cc([N+](=O)[O-])ccc1-5 [NSC 51535]",
    "OUTCOME_MEASURE": "IC50",
    "UNITS_OF_MEASURE": "µM",
    "NUMERIC_RESULT": 3.9
  },
  {
    "MOLECULE": "Cc1ccc(NC(=O)c2cc3ccccc3cc2O)c(C)c1.Cc1ccc(NC(=O)c2cc3ccccc3cc2O)c(C)c1.[Ni] [NSC 306698]",
    "OUTCOME_MEASURE": "IC50",
    "UNITS_OF_MEASURE": "µM",
    "NUMERIC_RESULT": 45
  }
]
